TGT: TrkA (histidine-tagged recombinant human TrkA, cytoplasmic domain) (Homo sapiens (Human))
ASSAY_EXPLANATION: TrkA ELISA Assay
Assay type: biochemical
CONDITION_CONTEXT: Table 1; ELISA, 500 μM ATP; read-out: TrkA Enzyme IC50
Decide using IC50 alone. Strictly below 30 nM: criterion met. Equal to or above 30 nM: criterion not met.

MOLECULE	CATEGORY
O=C(NCC1CC1)c1cnn2ccc(N3CCC[C@@H]3c3cncc(F)c3)nc12 [Example 106]	criterion met
CC(C)(C)NC(=O)c1cnn2ccc(N3CCC[C@@H]3c3cc(F)ccc3F)nc12 [Example 1]	criterion met
O=C(N[C@H]1CC[C@H](O)C1)c1cnn2ccc(N3CCC[C@@H]3c3cc(F)ccc3F)nc12 [Example 169]	criterion met
COc1ncc(F)cc1[C@H]1CCCN1c1ccn2ncc(C(=O)NC3CCN(S(C)(=O)=O)CC3)c2n1 [Example 162]	criterion met
O=C(NC[C@H](O)CO)c1cnn2ccc(N3CCC[C@@H]3c3cc(F)ccc3F)nc12 [Example 29]	criterion met
O=C(NCC(F)CCl)c1cnn2ccc(N3CCC[C@@H]3c3cncc(F)c3)nc12 (stereo partly drawn) [Example 97]	criterion met
NC(=O)c1cnn2ccc(N3CCC[C@@H]3c3cncc(F)c3)nc12 [Example 117]	criterion not met
COc1ncc(F)cc1[C@H]1CCCN1c1ccn2ncc(C(=O)NCCO)c2n1 [Example 155]	criterion met
CC(C)(C#N)NC(=O)c1cnn2ccc(N3CCC[C@@H]3c3cc(F)ccc3F)nc12 [Example 38]	criterion met
CC(C)(CO)NC(=O)c1cnn2ccc(N3CCC[C@@H]3c3cncc(F)c3)nc12 [Example 132]	criterion not met
CNC(=O)c1cnn2ccc(N3C[C@H](O)C[C@@H]3c3cccc(F)c3)nc12 [Example 43]	criterion not met
Cc1ncc(F)cc1[C@H]1CCCN1c1ccn2ncc(C(=O)N3CC(O)C3)c2n1 [Example 192]	criterion not met
CC(C)[C@@H](CO)NC(=O)c1cnn2ccc(N3CCC[C@@H]3c3cncc(F)c3)nc12 [Example 121]	criterion not met
CN1CCN(CCNC(=O)c2cnn3ccc(N4CCC[C@@H]4c4cc(F)ccc4F)nc23)CC1 [Example 171]	criterion met
CNC(=O)c1cnn2ccc(N3C[C@@H](O)C[C@@H]3c3cccc(F)c3)nc12 [Example 218]	criterion not met
C[C@H](NC(=O)c1cnn2ccc(N3CCC[C@@H]3c3cncc(F)c3)nc12)C1CC1 [Example 124]	criterion met
CNC(=O)c1cnn2ccc(N3CCC[C@@H]3c3cc(F)ccc3F)nc12 [Example 10]	criterion met
CC(C)(C)NC(=O)c1cnn2ccc(N3CCC[C@@H]3c3cc(F)c[nH]c3=O)nc12 [Example 202]	criterion met

====

TGT: TrkA (histidine-tagged recombinant human TrkA, cytoplasmic domain) (Homo sapiens (Human), UniProt P04629)
Sequence (P04629 440-796): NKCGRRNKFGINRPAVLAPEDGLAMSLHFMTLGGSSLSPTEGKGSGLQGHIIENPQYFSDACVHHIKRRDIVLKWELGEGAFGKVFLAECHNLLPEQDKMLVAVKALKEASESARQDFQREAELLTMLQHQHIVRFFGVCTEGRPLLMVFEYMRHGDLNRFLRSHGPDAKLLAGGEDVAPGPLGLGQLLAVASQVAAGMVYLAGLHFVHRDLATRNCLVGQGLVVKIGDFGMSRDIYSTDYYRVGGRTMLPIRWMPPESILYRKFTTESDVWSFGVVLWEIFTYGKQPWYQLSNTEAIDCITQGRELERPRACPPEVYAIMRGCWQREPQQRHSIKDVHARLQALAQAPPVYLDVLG
ASSAY_EXPLANATION: TrkA ELISA Assay
Format: biochemical
CONDITION_CONTEXT: Table 2; read-out: TrkA IC50
pIC50: −log10 of the molar value.

SMILES_RECORD	pIC50
C[C@H](NC(=O)c1cnn2ccc(N3CCC[C@@H]3c3cncc(F)c3)nc12)C1CC1	8.54
O=C(NC1CC1)c1cnn2ccc(N3CCC[C@@H]3c3cncc(F)c3)nc12	8.13
C[C@@H](NC(=O)c1cnn2ccc(N3CCC[C@@H]3c3cncc(F)c3)nc12)C1CC1	8.20

The values you see were collected from patent US8791123B2.
